System: ACHN renal
PROCEDURE_DETAILS: NCI-60 one-dose screen, 48 h
MEASUREMENT_CONTEXT: 10 µM unless noted
About 83,000 compounds went through this panel and 20% of them were active in at least one assay; those are over-represented in the sample as a whole. Activity calls are given as the source filed them. How the source made its calls: active means growth percent below 10; inactive means the rest.
Write down one outcome, taken from active, inactive

COc1cccc(C(=O)NCCNc2cc(-c3cn(-c4ccccc4)nc3-c3cccc(OC)c3)ccn2)c1 ... inactive
CCCCN(CCCC)CC(C)(C)C(O)c1ccc(OC)c2ccccc12 (stereo not given) ... inactive
Cc1ccccc1NC(=O)N/C(N)=N/c1nc(C)c(C)s1 ... inactive
COc1ccc2c(c1)C(=O)/C(=C/c1ccc(OCC(=O)Nc3nccs3)cc1)O2 ... inactive
COc1ccc2c(c1)O/C(=C\c1cccc(OCC(=O)Nc3nc4ccccc4s3)c1)C2=O ... inactive

Then this compound:
q: Give the logged outcome of this assay for the following compound: COc1ccc(S(=O)(=O)NCCNc2nccc(-c3c(-c4cccc(F)c4)nc4sccn34)n2)cc1
a: inactive
